Each entry below carries its reported % cells in cell cycle phase G1.
tested on: T47Dp53 cells; test: Cell cycle assay in T47Dp53 cells; format: cell-based, human; conditions: 150 nM, 48 hours, relative to untreated control
In the oligonucleotide strings, read from the 5' end, every base follows the letter of its sugar. An asterisk marks phosphorothioate; unmarked linkages are phosphodiester. Other units and linkages are bracketed, terminal groups are in braces. A string of capitals states the bases alone. e = 2'-O-(2-methoxyethyl) (MOE); [5mC] = 5-methylcytosine; d = 2'-deoxy (DNA)
Write down the numeric answer in % and omit the unit.

Substance	Study target	% cells in cell cycle phase G1 (%)
328744 (antisense e[5mC]*eG*eG*eA*eT*d[5mC]*d[5mC]*dT*dG*dT*dT*dA*d[5mC]*d[5mC]*dT*e[5mC]*eA*e[5mC]*e[5mC]*eA) [compound 328744]	T47Dp53 cells	130
327902 (antisense eG*eG*e[5mC]*eT*eG*eT*e[5mC]*eA*eA*eT*eT*e[5mC]*eA*eT*eA*eG*eG*eT*e[5mC]*eA*eG) [compound 327902]	T47Dp53 cells	100
327905 (antisense e[5mC]*eA*eG*eA*e[5mC]*eT*e[5mC]*e[5mC]*eG*eG*eT*eG*eG*eA*eA*eT*eG*eA*eA*eG*eG*eA) [compound 327905]	T47Dp53 cells	112
328403 (antisense eA*eG*eG*e[5mC]*e[5mC]*dT*dA*dT*dT*d[5mC]*d[5mC]*dT*dG*dT*dA*eG*e[5mC]*eA*eA*eA) [compound 328403]	T47Dp53 cells	114
25691 (antisense eG*e[5mC]*e[5mC]*eA*eA*dG*dG*d[5mC]*dG*dT*dG*dA*d[5mC]*dA*dT*eG*eA*eT*eA*eT) [compound 25691]	T47Dp53 cells	130
25690 (antisense eA*eT*e[5mC]*e[5mC]*e[5mC]*dT*dT*dT*d[5mC]*dT*dT*d[5mC]*d[5mC]*dG*d[5mC]*eA*eT*eG*eT*eG) [compound 25690]	T47Dp53 cells	97
328759 (antisense eG*eA*eG*eG*eG*dA*dT*dT*dG*dT*dA*dT*dG*dA*dA*e[5mC]*eA*eT*e[5mC]*eT) [compound 328759]	T47Dp53 cells	99

Return value of % cells in cell cycle phase G1 for input 338769 (antisense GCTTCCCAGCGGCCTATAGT; all 2'-MOE, all phosphorothioate, methylation of C not given here) [compound 338769] , no commentary. 103
